test system: wheat (Triticum aestivum); experiment: Test C preemergence, wheat; type: in vivo; details: 31 g ai/ha Preemergence; 0 is no effect, 100 is complete control
Plant response rating (0 to 100 scale), Wheat strictly less than 20 = TRUE. Otherwise FALSE.

                                    molecule  category_label
 0  CC#CCOC1CCN(c2cc(NS(=O)(=O)C(F)(F)F)c(C)cc2C)C1=O (stereo not shown) [Compound 60]           FALSE
 1  Cc1c(N2CCC(OC3CC3)C2=O)cc(N(C(=O)OCC(C)C)S(=O)(=O)C(F)(F)F)c(C)c1C (stereo not shown) [Compound 50]           FALSE
 2  Cc1c(N2CCC(OC3CCC3)C2=O)cc(N(C(=O)OCC(C)C)S(=O)(=O)C(F)(F)F)c(C)c1C (stereo not shown) [Compound 48]           FALSE
 3  Cc1cc(C)c(N2CCC(OC3CC3)C2=O)cc1NS(=O)(=O)C(F)(F)F (single isomer, unassigned) [Compound 29]           FALSE
 4  CC(=O)N(c1cc(N2CCC(OC3CC3)C2=O)c(C)cc1C)S(=O)(=O)C(F)(F)F (stereo not shown) [Compound 17]           FALSE
 5  Cc1cc(C)c(N2CCC(O)C2=O)cc1NS(=O)(=O)C(F)(F)F (stereo not shown) [Compound 14]           FALSE
 6  Cc1cc(C)c(N2CCC(OCC3CCCO3)C2=O)cc1NS(=O)(=O)C(F)(F)F (stereo not shown) [Compound 42]           FALSE
 7  Cc1c(NS(=O)(=O)C(F)(F)F)cc(N2CCC(OC3CC3)C2=O)c(C)c1F (stereo not shown) [Compound 26]           FALSE
 8  Cc1cc(C)c(N2CCC(OC3CC3)C2=O)cc1NS(=O)(=O)C(F)(F)F (single isomer, unassigned) [Compound 30]           FALSE
 9  Cc1cc(C)c(N(COC(=O)C(C)(C)C)S(=O)(=O)C(F)(F)F)cc1N1CCC(OCC2CC2(F)F)C1=O (stereo not shown) [Compound 54]            TRUE
10  COC(=O)N(c1cc(N2CCC(OC3CC3)C2=O)c(C)cc1C)S(=O)(=O)C(F)(F)F (stereo not shown) [Compound 16]            TRUE
11  C=CCO/N=C1\CCN(c2cc(NS(=O)(=O)C(F)(F)F)c(C)cc2C)C1=O [Compound 11]           FALSE
12  CC(=O)N(c1cc(N2CCC(OC3CC3)C2=O)c(C)cc1Cl)S(=O)(=O)C(F)(F)F (stereo not shown) [Compound 38]           FALSE
13  Cc1cc(Cl)c(N(COC(=O)C(C)(C)C)S(=O)(=O)C(F)(F)F)cc1N1CCC(OC2CC2)C1=O (stereo not shown) [Compound 33]            TRUE
14  Cc1cc(C)c(N2CCC(OCC3CC3(F)F)C2=O)cc1NS(=O)(=O)C(F)(F)F (stereo not shown) [Compound 41]           FALSE
15  Cc1c(NS(=O)(=O)C(F)(F)F)cc(N2CCC(OC3CCC3)C2=O)c(C)c1F (stereo not shown) [Compound 25]           FALSE
16  Cc1c(NS(=O)(=O)C(F)(F)F)cc(N2CCC(OCC3CC3)C2=O)c(C)c1F (stereo not shown) [Compound 63]           FALSE
17  CCCC(=O)OCN(c1cc(N2CCC(OC3CC3)C2=O)c(C)cc1C)S(=O)(=O)C(F)(F)F (stereo not shown) [Compound 20]           FALSE
18  Cc1c(NS(=O)(=O)C(F)(F)F)cc(N2CCCC(OC3CCC3)C2=O)c(C)c1F (stereo not shown) [Compound 36]           FALSE
19  Cc1cc(C)c(N(COC(=O)C(C)(C)C)S(=O)(=O)C(F)(F)F)cc1N1CCC(OCC2CCC2)C1=O (stereo not shown) [Compound 56]            TRUE
20  CCOC(=O)N(c1cc(N2CCC(OC3CC3)C2=O)c(C)cc1C)S(=O)(=O)C(F)(F)F (stereo not shown) [Compound 19]            TRUE
21  CCO/N=C1\CCN(c2cc(NS(=O)(=O)C(F)(F)F)c(C)cc2C)C1=O [Compound 12]           FALSE
22  CO/N=C1\CCN(c2cc(NS(=O)(=O)C(F)(F)F)c(C)cc2C)C1=O [Compound 9]           FALSE
23  Cc1c(N2CCC(OC3CCC3)C2=O)cc(N(COC(=O)C(C)(C)C)S(=O)(=O)C(F)(F)F)c(C)c1C (stereo not shown) [Compound 51]            TRUE
24  Cc1cc(C)c(N(COC(=O)C(C)(C)C)S(=O)(=O)C(F)(F)F)cc1N1CCC(OCC2CC(F)(F)C2)C1=O (stereo not shown) [Compound 55]            TRUE
25  Cc1cc(C)c(N2CCC(OCC3CCC3(F)F)C2=O)cc1NS(=O)(=O)C(F)(F)F (stereo not shown) [Compound 52]           FALSE
26  Cc1cc(C)c(N(C(=O)OCC(C)C)S(=O)(=O)C(F)(F)F)cc1N1CCC(OC2CC2)C1=O (stereo not shown) [Compound 21]            TRUE

* * *

system: oat, wild (wild oat, Avena fatua); assay: Test A postemergence, wild oat; format: in vivo; conditions: 31 g ai/ha, 0 to 100 scale, 10 days
Property: Plant response rating, Oat, Wild; scope: individual molecules
VALUE_TYPE: Plant response rating, Oat, Wild

>>> df
                                   molecule                        value_type  result
0  Cc1cc(C)c(N2CCC(OC3CCCC3)C2=O)cc1NS(=O)(=O)C(F)(F)F (stereo not drawn)  Plant response rating, Oat, Wild       0
1  Cc1cc(C)c(N2CCC(OC3CC3)C2=O)cc1NS(=O)(=O)C(F)(F)F (stereo not drawn)  Plant response rating, Oat, Wild      40
2  Cc1cc(C)c(N(COC(=O)C(C)(C)C)S(=O)(=O)C(F)(F)F)cc1N1CCC(OC2CCC2)C1=O (stereo not drawn)  Plant response rating, Oat, Wild      10
3  Cc1cc(C)c(N(COC(=O)C(C)(C)C)S(=O)(=O)C(F)(F)F)cc1N1CCC(OC2CC2)C1=O (stereo not drawn)  Plant response rating, Oat, Wild      30
4  Cc1cc(C)c(N2CCC(OC3CCC3)C2=O)cc1NS(=O)(=O)C(F)(F)F (stereo not drawn)  Plant response rating, Oat, Wild      30
5  Cc1cc(C)c(N(COC(=O)C(C)(C)C)S(=O)(=O)C(F)(F)F)cc1N1CCC(OC2CCCC2)C1=O (stereo not drawn)  Plant response rating, Oat, Wild      20

* * *

Measured pest or weed control at 125 g/ha values are reported for all entries that follow.
test system: ragweed (common ragweed, Ambrosia artemisiifolia); assay: Test A preemergence, ragweed; format: in vivo; settings: pre-emergence, 240 h, 125 g ai/ha, 0 to 100 scale, 10 days, read-out: Plant response rating, Ragweed
VALUE_TYPE: pest or weed control at 125 g/ha (%)

>>> print(df.to_string())
                                   molecule                        value_type  units_text  result
0  Cc1cc(C)c(N(COC(=O)C(C)(C)C)S(=O)(=O)C(F)(F)F)cc1N1CCC(OC2CC2)C1=O (stereo not shown) [Compound 7]  pest or weed control at 125 g/ha           %      90
1  C#CCOC1CCN(c2cc(NS(=O)(=O)C(F)(F)F)c(C)cc2C)C1=O (stereo not shown) [Compound 1]  pest or weed control at 125 g/ha           %      90
2  Cc1cc(C)c(N(COC(=O)C(C)(C)C)S(=O)(=O)C(F)(F)F)cc1N1CCC(OC2CCC2)C1=O (stereo not shown) [Compound 8]  pest or weed control at 125 g/ha           %      90
3  Cc1cc(C)c(N2CCC(OC3CC3)C2=O)cc1NS(=O)(=O)C(F)(F)F (stereo not shown) [Compound 3]  pest or weed control at 125 g/ha           %     100

* * *

tested on: ryegrass, Italian (Italian ryegrass, Lolium multiflorum); assay: Test C postemergence, Italian ryegrass; type: in vivo; settings: 31 g ai/ha Postemergence; visual injury, 0 to 100 scale (0 no effect, 100 complete control)
// values below are reported Ryegrass, Italian plant response rating
VALUE_TYPE: Ryegrass, Italian plant response rating

>>> df
                                   compound  result
0  Cc1c(NS(=O)(=O)C(F)(F)F)cc(N2CCCC(OC3CCC3)C2=O)c(C)c1F (stereo not shown)       0
1  Cc1c(N2CCC(OC3CC3)C2=O)cc(N(C(=O)OCC(C)C)S(=O)(=O)C(F)(F)F)c(C)c1C (stereo not shown)      50
2  CC#CCOC1CCN(c2cc(NS(=O)(=O)C(F)(F)F)c(C)cc2C)C1=O (stereo not shown)      50
3  Cc1cc(C)c(N2CCC(OC3CC3)C2=O)cc1NS(=O)(=O)C(F)(F)F (single isomer, unassigned) [Compound 29]      70
